Assignment: determine reported abundance fitness for the given variants.
B1: Zinc finger homeobox protein 4, residues 2183 to 2238; numbered along this chain, Q86UP3 (parent)
chain: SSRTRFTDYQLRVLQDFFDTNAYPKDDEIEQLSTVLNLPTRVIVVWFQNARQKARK

Variants of: B1
Experiment: abundance fitness (aPCA) (normalised: wild type 0, dead -1); higher = more abundant; growth selection in yeast, the domain comes from the species named
Conditions: Homo sapiens
Output spec: single numeric token, no unit.

// sample SSRTRFTDYQLRVLQDFFDTNAYPKNDEIEQLSTVLNLPTRVIVVWFQNARQKARK [D26N] , its abundance fitness was -0.114

Just so you know, measured abundance fitness for SSRDRFTDYQLRVLQDFFDTNAYPKDDEIEQLSTVLNLPTRVIVVWFQNARQKARK [T4D] came out at 0.015

SSRTRFGDYQLRVLQDFFDTNAYPKDDEIEQLSTVLNLPTRVIVVWFQNARQKARK [T7G] has a reported abundance fitness of -0.333

So for SSRTRFTDYQPRVLQDFFDTNAYPKDDEIEQLSTVLNLPTRVIVVWFQNARQKARK [L11P] , the logged abundance fitness turned out to be -1.19

Lab note: SSRTRFTDYQLRVLQDFFDTNAYPKDDEPEQLSTVLNLPTRVIVVWFQNARQKARK [I29P] gave abundance fitness of -1.23

Record SSRTRMTDYQLRVLQDFFDTNAYPKDDEIEQLSTVLNLPTRVIVVWFQNARQKARK [F6M] . Reported abundance fitness: 0.111

Record WSRTRFTDYQLRVLQDFFDTNAYPKDDEIEQLSTVLNLPTRVIVVWFQNARQKARK [S1W] . Reported abundance fitness: -1.16

Entry under test: SSRTRFTDYQLRVLQDFFDTNAYPKDDEIEQLQTVLNLPTRVIVVWFQNARQKARK [S33Q] . Its abundance fitness was -0.134

# variant SSRTRFTDYQLRVLQDFFDTNAYPKDTEIEQLSTVLNLPTRVIVVWFQNARQKARK [D27T] ; its abundance fitness = -0.256

response.value for SSRTRFTDYQLRCLQDFFDTNAYPKDDEIEQLSTVLNLPTRVIVVWFQNARQKARK [V13C] (field: abundance fitness) = -0.181

What the record says about SSRTRFTDYQSRVLQDFFDTNAYPKDDEIEQLSTVLNLPTRVIVVWFQNARQKARK [L11S] : abundance fitness is 0.138

The variant SSRTRFTDYQLTVLQDFFDTNAYPKDDEIEQLSTVLNLPTRVIVVWFQNARQKARK [R12T] showed abundance fitness equal to -0.066

# abundance fitness (variant: SSRTRFTDYQLRVLQDFFDTNAYPKDDEIHQLSTVLNLPTRVIVVWFQNARQKARK [E30H] ) is 0.008

Data point: SSRTRFTDYQLRVLQDFFDTNAYPKDDEEEQLSTVLNLPTRVIVVWFQNARQKARK [I29E] ; abundance fitness = -0.614

Record summary for SSRTRFTDYQARVLQDFFDTNAYPKDDEIEQLSTVLNLPTRVIVVWFQNARQKARK [L11A] : reported abundance fitness = -0.108

Record SSRTRFTDYQLRVLQDPFDTNAYPKDDEIEQLSTVLNLPTRVIVVWFQNARQKARK [F17P] , field abundance fitness: -1

Value of measured abundance fitness for the entry SSRTRFTDYQLRVLQDFFDTNAYPKDDEIEQLSTHLNLPTRVIVVWFQNARQKARK [V35H] : -0.006

Record SSRTRFTDYQLRVLQDFFDTNAYPKDDEIEQLSTVLGLPTRVIVVWFQNARQKARK [N37G] . Reported abundance fitness: -0.126

Entry SSRTRFTDYQLRVLQDFFDTNAYPKDDSIEQLSTVLNLPTRVIVVWFQNARQKARK [E28S] ; abundance fitness = -0.18

Value of measured abundance fitness for the entry SSRTRFTDYQLRVLQDFFDTNAVPKDDEIEQLSTVLNLPTRVIVVWFQNARQKARK [Y23V] : -0.039

Record summary for SSRTTFTDYQLRVLQDFFDTNAYPKDDEIEQLSTVLNLPTRVIVVWFQNARQKARK [R5T] : reported abundance fitness = 0.22

For SSRTRFTDYQLRVLQDFYDTNAYPKDDEIEQLSTVLNLPTRVIVVWFQNARQKARK [F18Y] the variant record lists abundance fitness as 0.101

Query SSRTRFTDYQYRVLQDFFDTNAYPKDDEIEQLSTVLNLPTRVIVVWFQNARQKARK [L11Y] yields abundance fitness of -0.194

# variant SSCTRFTDYQLRVLQDFFDTNAYPKDDEIEQLSTVLNLPTRVIVVWFQNARQKARK [R3C] ; its abundance fitness = 0.484

Entry under test: SSRTRFTDYQLRVSQDFFDTNAYPKDDEIEQLSTVLNLPTRVIVVWFQNARQKARK [L14S] . Its abundance fitness was -0.731

Given item SSRTRFTDYQLRVLQDFFDTNAYPKDDELEQLSTVLNLPTRVIVVWFQNARQKARK [I29L] , the value recorded as its abundance fitness is -0.023

Notebook: SSRTRFTLYQLRVLQDFFDTNAYPKDDEIEQLSTVLNLPTRVIVVWFQNARQKARK [D8L] , abundance fitness read as -0.229

Quick note, abundance fitness for SSRTRFTDYQLRVLQDFFDTEAYPKDDEIEQLSTVLNLPTRVIVVWFQNARQKARK [N21E] landed at -0.197

# abundance fitness of SSRTRFTDYQLRVLQDFFDTNAYPKEDEIEQLSTVLNLPTRVIVVWFQNARQKARK [D26E] = -0.163

Value of measured abundance fitness for the entry SSRTRFTDYQLRVLQHFFDTNAYPKDDEIEQLSTVLNLPTRVIVVWFQNARQKARK [D16H] : -0.193

So, SSRTRFTDYQLRVLQDFFDTNAYPKDDEIEQLSTILNLPTRVIVVWFQNARQKARK [V35I] ? Its abundance fitness was -0.207

Short answer for SSRTRFTDYQLRVLQDFFDTNAYPKDDEIEQLPTVLNLPTRVIVVWFQNARQKARK [S33P] : abundance fitness was -0.675

# abundance fitness (variant: SSRTRFTDYQLRVLQDFFDTNAYPKDDEIEQLSTYLNLPTRVIVVWFQNARQKARK [V35Y] ) is -0.506

Record SSRTRFTDYQLRVLQDFFATNAYPKDDEIEQLSTVLNLPTRVIVVWFQNARQKARK [D19A] . Reported abundance fitness: 0.108

Input SSRTRFTDYQLRVLQDFFDTNAYPKDDEIEQLSTVDNLPTRVIVVWFQNARQKARK [L36D] . Output abundance fitness: -0.933

Summary for this variant, SSRHRFTDYQLRVLQDFFDTNAYPKDDEIEQLSTVLNLPTRVIVVWFQNARQKARK [T4H] : abundance fitness is 0.096

For record SSRTRFTDYYLRVLQDFFDTNAYPKDDEIEQLSTVLNLPTRVIVVWFQNARQKARK [Q10Y] the listed abundance fitness is -0.787

abundance fitness in this record for SSRTRFTDYQLRVLQDFFDTNQYPKDDEIEQLSTVLNLPTRVIVVWFQNARQKARK [A22Q] : 0.005

Recorded result, SSRTWFTDYQLRVLQDFFDTNAYPKDDEIEQLSTVLNLPTRVIVVWFQNARQKARK [R5W] , abundance fitness: -0.11

The variant listed as SSRTRFTDYQLRMLQDFFDTNAYPKDDEIEQLSTVLNLPTRVIVVWFQNARQKARK [V13M] shows abundance fitness equal to 0.44

Form: variant = SSRTKFTDYQLRVLQDFFDTNAYPKDDEIEQLSTVLNLPTRVIVVWFQNARQKARK [R5K] ; abundance fitness = 0.195

Documented abundance fitness of SSRTRFTDYQLRVLLDFFDTNAYPKDDEIEQLSTVLNLPTRVIVVWFQNARQKARK [Q15L] : -0.036

SSRTRFTDYQMRVLQDFFDTNAYPKDDEIEQLSTVLNLPTRVIVVWFQNARQKARK [L11M] has a reported abundance fitness of -0.061

abundance fitness reading for SSRTRFTDYQLRTLQDFFDTNAYPKDDEIEQLSTVLNLPTRVIVVWFQNARQKARK [V13T] : 0.013

The variant SSRTRFWDYQLRVLQDFFDTNAYPKDDEIEQLSTVLNLPTRVIVVWFQNARQKARK [T7W] showed abundance fitness equal to -0.719

Noted for SSRTRATDYQLRVLQDFFDTNAYPKDDEIEQLSTVLNLPTRVIVVWFQNARQKARK [F6A] : its abundance fitness reads -0.654
